The reported numbers originate from patent US12590062B2.

# SUBJECT OF TEST: PD-1/PD-L1 interaction (Homo sapiens)
# Construct: expressed in transfected cells; host or cells: CHO cells (aAPC-PD-L1) co-cultured with Jurkat cells overexpressing PD-1 and an NFAT-luciferase reporter
# Sequence (Q9NZQ7 19-290): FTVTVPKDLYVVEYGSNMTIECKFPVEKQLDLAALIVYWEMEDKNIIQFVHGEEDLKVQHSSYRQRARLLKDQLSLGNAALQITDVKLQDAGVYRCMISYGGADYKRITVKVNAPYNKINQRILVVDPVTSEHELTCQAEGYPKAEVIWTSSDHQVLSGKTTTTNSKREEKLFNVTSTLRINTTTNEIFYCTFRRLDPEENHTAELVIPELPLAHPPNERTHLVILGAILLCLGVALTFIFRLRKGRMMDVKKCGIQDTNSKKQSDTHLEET
# ASSAY COMMENT: PD-1/PD-L1 NFAT reporter co-culture assay
# Assay type: cell-based
# MEASUREMENT SETUP: Jurkat PD-1 NFAT-luciferase cells co-cultured with aAPC-PD-L1 CHO cells, 6 hrs at 37° C.; read-out: EC50 NFAT Luciferase
pEC50: −log10 of the molar value.
READOUT TYPE: pEC50

Worked cases, pEC50 given:
COc1nc(-c2cccc(-c3cccc4c3CC[C@@H]4Oc3nc(OC)c(CNC[C@@H]4CCC(=O)N4)cc3Cl)c2Cl)ccc1CN[C@@H]1CCC[C@@H]1O: 7.09
C[C@@](CO)(NCc1cc(Cl)c(OCc2cccc(-c3cccc(-c4ccc(OCCN5CC6(CCC(=O)N6)C5)cc4)c3Cl)c2Cl)nc1OCc1cc(C#N)cc(C#N)c1)C(=O)O: 7.07
CS(=O)(=O)c1cncc(COc2nc(OCc3cccc(-c4cccc(-c5ccc(OCCNCCO)cc5)c4Cl)c3Cl)c(Cl)cc2CNC[C@@H](O)CC(=O)O)c1: 6.70

[1] COc1nc(-c2cccc(-c3cccc4c3CC[C@@H]4Oc3nc(OC)c(CN4CC5(CCC(=O)N5)C4)cc3Br)c2Cl)ccc1CN1CC2(CCC(=O)N2)C1
[2] Cn1cc(CN2CC3(CNC(=O)C3)C2)c2ncc(-c3cccc(-c4cccc(-c5cnc6c(CN7CC8(CNC(=O)C8)C7)cn(C)c6n5)c4Cl)c3Cl)nc21
// query Parameter metric = pEC50. Return the lower-valued option from 1 and 2 . Return value: the label identifying the chosen record.
// result 1
(1: 7.02, 2: 7.30)

[1] C[C@@](CO)(NCc1cc(Cl)c(O[C@H]2CCc3c(-c4cccc(-c5ccc(S(N)(=O)=O)cc5)c4Cl)cccc32)nc1OCc1cncc(C#N)c1)C(=O)O
[2] COc1nc(O[C@H]2CCc3c(-c4cccc(-c5ccc(CNC[C@@H]6CCC(=O)N6)cc5)c4Cl)cccc32)c(Cl)cc1CN1CC2(CCC(=O)N2)C1
[3] Cc1c(COc2ccc(CNC[C@@H](O)CC(=O)O)cc2C(F)(F)F)cccc1-c1cccc(COc2ccc(CNC[C@@H](O)CC(=O)O)cc2C(F)(F)F)c1C
[4] COc1cc(-c2cccc(-c3cccc(-c4ccc(CNC[C@@H](O)CC(=O)O)c(OC)c4)c3C)c2C)ccc1CNC[C@@H](O)CC(=O)O
// query Order the records so the highest pEC50 appears first and the lowest last. Hello, could you send the labels back in the order asked? Thank you.
// result 1, 2, 4, 3
(1: 6.63, 2: 6.19, 4: 5.96, 3: 4.60)

[1] COc1nc(-c2cccc(-c3cccc(COc4nc(OC)c(CN5CC6(CNC(=O)C6)C5)cc4Cl)c3Cl)c2Cl)ccc1CNC[C@@H]1CCC(=O)N1
[2] Cc1c(COc2cc(OCc3cncc(C#N)c3)c(CNC[C@@H](O)CC(=O)O)cc2Cl)cccc1-c1cccc(-c2ccc(C3=NCCN3)c(OC(F)F)c2)c1C
// query Parameter metric = pEC50. Return the lower-valued option from 1 and 2 . Return value: the label identifying the chosen record.
// result 1
(1: 6.57, 2: 6.82)

###

# SUBJECT OF TEST: PD-1/PD-L1 interaction (Homo sapiens)
# Construct: expressed in transfected cells; host or cells: CHO cells (aAPC-PD-L1) co-cultured with Jurkat cells overexpressing PD-1 and an NFAT-luciferase reporter
# ASSAY COMMENT: PD-1/PD-L1 NFAT reporter co-culture assay
# Format: cell-based
# MEASUREMENT SETUP: Jurkat PD-1 NFAT-luciferase cells co-cultured with aAPC-PD-L1 CHO cells, 6 hrs at 37° C.; read-out: EC50 NFAT Luciferase
READOUT TYPE: EC50 (nM)

Cc1c(COc2cc(OCc3cncc(C#N)c3)c(CNC[C@@H](O)CC(=O)O)cc2Cl)cccc1-c1cccc2c1CCN2C(=O)c1ccc(CNC[C@@H](O)CC(=O)O)c(OCc2cncc(C#N)c2)c1: 672
Cc1c(COc2cc(OCc3cncc(C#N)c3)c(CNCCO)cc2Cl)cccc1-c1cccc(COc2cc(OCC3CC3)c(CNCCO)cc2Cl)c1C: 2150

[a] Cc1c(COc2cc(OCc3cncc(C#N)c3)c(CN[C@@](C)(CO)C(=O)O)cc2Cl)cccc1-c1cccc(-c2ccc3c(c2)CCC3N2CC(C)C2)c1C (stereo partly drawn)
[b] COc1nc(OCc2cccc(-c3cccc(COc4nc(OC)c(CNC(CO)c5nn[nH]n5)cc4Cl)c3C)c2C)c(Cl)cc1CNC(CO)c1nn[nH]n1 (stereo not drawn)
// query Parameter metric = EC50. Return the lower-valued option from a and b . Return value: the label identifying the chosen record.
// result a

[1] C[C@](CO)(NCc1cc(Br)c(OCc2cccc(-c3cccc(COc4nc(OCc5cncc(C#N)c5)c(CN[C@](C)(CO)C(=O)O)cc4Br)c3Cl)c2Cl)nc1OCc1cncc(C#N)c1)C(=O)O
[2] COc1cc(-c2cccc(-c3cccc(-c4ccc(CNC[C@@H]5CCC(=O)N5)c(OC)c4)c3Cl)c2Cl)ccc1CNC[C@@H]1CCC(=O)N1
// query Parameter metric = EC50. Return the lower-valued option from 1 and 2 . Return value: the label identifying the chosen record.
// result 2
(2: 47 nM, 1: 69 nM)

###

# SUBJECT OF TEST: PD-1/PD-L1 (Homo sapiens, UniProt Q9NZQ7)
# ASSAY COMMENT: PD-1/PD-L1 biochemical protein-protein interaction assay (ALPHA)
# MEASUREMENT SETUP: 0.3 nM His tagged PD-L1, 2.5 nM biotinylated Fc-PD-1, 60 minutes at 25° C., read-out: IC50 PD-L1-PD-1 Alpha IC50-mono PD-L1-fcP-D1
pIC50: −log10 of the molar value.
READOUT TYPE: pIC50

Worked cases, pIC50 given:
N#Cc1cncc(COc2nc(O[C@H]3CCc4c(-c5cccc6c5CC[C@@H]6Oc5nc(OCc6cncc(C#N)c6)c(CNC[C@@H](O)CC(=O)O)cc5Br)cccc43)c(Br)cc2CNC[C@@H](O)CC(=O)O)c1: 10.00
COc1nc(O[C@H]2CCc3c(-c4cccc(-c5cnc6c(CN7CC8(CNC(=O)C8)C7)cn(C)c6n5)c4Cl)cccc32)c(Cl)cc1CN1CCC[C@@H](C(=O)O)C1: 10.19
CC(C)(NCc1cc(Cl)c(OCc2cccc(-c3cccc(-c4ccc(OCCNCCO)cc4)c3Cl)c2Cl)nc1OCc1cncc(S(C)(=O)=O)c1)C(=O)O: 10.19

[I] COc1nc(-c2cccc(-c3cccc4c3CC[C@@H]4Oc3nc(OCC#N)c(CNC[C@@H]4CCC(=O)N4)cc3Cl)c2Cl)ccc1CNC[C@@H]1CCC(=O)N1
[II] N#Cc1cncc(COc2nc(O[C@H]3CCc4c(-c5cccc(-c6nc7ccc(CNC[C@@H](O)CC(=O)O)cn7n6)c5Cl)cccc43)c(Cl)cc2CNC[C@@H](O)CC(=O)O)c1
[III] COc1nc(OCc2cccc(-c3cccc(COc4nc(OC)c(CNC[C@H](O)CC(=O)O)cc4Br)c3C)c2C)c(Br)cc1CNC[C@H](O)CC(=O)O
// query Order the records so the highest pIC50 appears first and the lowest last. Hello, could you send the labels back in the order asked? Thank you.
// result II, I, III

###

# SUBJECT OF TEST: PD-L1 (Homo sapiens)
# Construct: determine if they can specifically dimerize the extracellular domains of PD-L1
# Sequence (Q9NZQ7 19-238 limits assumed): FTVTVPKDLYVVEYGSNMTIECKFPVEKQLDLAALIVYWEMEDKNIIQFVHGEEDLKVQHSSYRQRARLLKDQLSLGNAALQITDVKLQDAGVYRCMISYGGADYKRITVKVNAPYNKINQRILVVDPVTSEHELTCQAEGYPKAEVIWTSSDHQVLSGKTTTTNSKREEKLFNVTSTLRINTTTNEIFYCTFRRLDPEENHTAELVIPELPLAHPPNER
# Sequence (Q9NZQ7 19-238 limits assumed): as above
# ASSAY COMMENT: PD-L1/PD-L1 dimerization biochemical protein-protein interaction assay (ALPHA)
# Assay type: binding
# MEASUREMENT SETUP: compound-induced PD-L1 dimerization, head prints '1 nM' (0.5 nM His-tagged PD-L1 and 0.5 nM FLAG-tagged PD-L1), read-out: AC50 PDL1 Dimer Alpha 1 nM
READOUT TYPE: AC50 (nM)

Worked cases, AC50 given:
COc1nc(-c2cccc(-c3cccc(COc4nc(OC)c(CN5CC6(CNC(=O)C6)C5)cc4Cl)c3Cl)c2Cl)ccc1CNC[C@@H]1CCC(=O)N1: 290
C[C@@](CO)(NCc1cc(Cl)c(OCc2cccc(-c3cccc(-c4ccc(OCCN5CC6(CCC(=O)N6)C5)cc4)c3Cl)c2Cl)nc1OCc1cc(C#N)cc(C#N)c1)C(=O)O: 39.4

[I] Cc1c(COc2cc(OCc3cncc(C#N)c3)c(CNC[C@@H](O)CC(=O)O)cc2Cl)cccc1-c1cccc(-c2ccc3c(CNC[C@H]4CCC(=O)N4)ccnc3c2)c1C
[II] COc1nc(O[C@H]2CCc3c(-c4cccc(-c5ccc(CNC[C@@H]6CCC(=O)N6)cc5)c4Cl)cccc32)c(Cl)cc1CN1CCC[C@@H]1C(=O)O
[III] COc1nc(-c2cccc(-c3cccc(-c4ccc5c(C[N+](C)(C)C)c[nH]c5c4)c3Cl)c2Cl)ccc1CNC[C@@H]1CCC(=O)N1
// query Write the entries in order, lowest recorded AC50 first. Hello, could you send the labels back in the order asked? Thank you.
// result II, III, I
(II: 21.2 nM, III: 143 nM, I: 477 nM)
